Measured IC50, listed per entry.
target.under.test: KIT (Homo sapiens, UniProt P10721)
Sequence (P10721 26-976): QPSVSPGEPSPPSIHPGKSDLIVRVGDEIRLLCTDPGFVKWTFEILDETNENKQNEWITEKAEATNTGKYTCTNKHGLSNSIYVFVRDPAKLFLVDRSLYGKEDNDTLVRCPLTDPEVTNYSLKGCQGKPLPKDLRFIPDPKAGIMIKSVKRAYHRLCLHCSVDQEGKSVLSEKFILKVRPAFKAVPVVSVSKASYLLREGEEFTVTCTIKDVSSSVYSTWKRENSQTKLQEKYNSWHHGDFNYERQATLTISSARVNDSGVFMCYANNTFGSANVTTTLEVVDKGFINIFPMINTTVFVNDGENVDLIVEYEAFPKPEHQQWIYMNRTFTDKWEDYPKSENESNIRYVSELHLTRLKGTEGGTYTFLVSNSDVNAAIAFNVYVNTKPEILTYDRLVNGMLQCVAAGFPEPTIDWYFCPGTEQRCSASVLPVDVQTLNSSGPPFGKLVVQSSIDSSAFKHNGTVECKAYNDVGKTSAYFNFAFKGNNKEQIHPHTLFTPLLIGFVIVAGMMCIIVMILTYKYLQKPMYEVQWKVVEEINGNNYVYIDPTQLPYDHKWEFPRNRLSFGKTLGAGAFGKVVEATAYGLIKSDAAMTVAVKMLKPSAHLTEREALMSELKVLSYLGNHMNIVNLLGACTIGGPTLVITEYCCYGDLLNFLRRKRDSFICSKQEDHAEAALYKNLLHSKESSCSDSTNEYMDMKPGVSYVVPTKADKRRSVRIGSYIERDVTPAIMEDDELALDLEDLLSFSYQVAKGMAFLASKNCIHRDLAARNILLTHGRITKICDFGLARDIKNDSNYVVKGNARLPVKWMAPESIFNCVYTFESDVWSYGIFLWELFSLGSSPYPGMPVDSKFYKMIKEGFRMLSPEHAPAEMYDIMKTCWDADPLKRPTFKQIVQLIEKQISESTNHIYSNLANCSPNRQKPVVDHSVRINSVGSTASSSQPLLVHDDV
assay.overview: Caliper mobility shift kinase inhibition assay, recombinant KIT
condition.summary: recombinant KIT 0.9 nM, ATP 400 μM, incubation 17 hr (Table 2)

Take a look at these entries with their results.
* C=CC(=O)N1C[C@@H](O)C[C@H]1C(=O)NCCn1cnc2cnc(Nc3ncc(-c4ccc(F)cc4)s3)cc21 | < 0.001 µM
* C=C(F)C(=O)N1CCC[C@H]1C(=O)NCCn1cnc2cnc(Nc3ncc(-c4ncccc4F)s3)cc21 | 0.01 to 0.1 µM
* C=C(F)C(=O)N1CCC[C@H]1C(=O)NCCn1cnc2cnc(Nc3ncc(-c4ccc(F)cc4)s3)cc21 | 0.001 to 0.01 µM
* C=CC(=O)N1C[C@H](O)C[C@H]1C(=O)NCCn1cnc2cnc(Nc3ncc(-c4ccc(F)cc4)s3)cc21 | < 0.001 µM
* C=CC(=O)N1C[C@H](O)C[C@H]1C(=O)NCCn1cnc2cnc(Nc3ncc(-c4ncncc4F)s3)cc21 | 0.01 to 0.1 µM

Please examine the following record next.
Just so you know, measured IC50 for `C=CC(=O)N1CCOC[C@H]1C(=O)NCCn1cnc2cnc(Nc3ncc(-c4ncccc4F)s3)cc21` came out at 0.01 to 0.1 µM

The origin of these recorded values is patent US20250170107A1.
